Values compiled from ChEMBL document CHEMBL3352437.

- System: SR
- test_method_notes: Antileukemic activity against human SR cells assessed as inhibition of tumor growth after 24 hrs
- Type: functional, cell-based
pIC50 listing for selected compounds.
Bear in mind: pIC50 is minus log10 of a mol/L concentration; give just that figure.

Record excerpt, results attached:
query_smiles	pIC50
O=C1/C(=C/c2ccccc2)CN(C(=O)C(=O)N2C/C(=C\c3ccccc3)C(=O)/C(=C/c3ccccc3)C2)C/C1=C\c1ccccc1	7.70
COc1cc(/C=C2\CN(C(=O)C(=O)N3C/C(=C\c4cc(OC)c(OC)c(OC)c4)C(=O)/C(=C/c4cc(OC)c(OC)c(OC)c4)C3)C/C(=C\c3cc(OC)c(OC)c(OC)c3)C2=O)cc(OC)c1OC	7.70
O=C1/C(=C\c2ccc(Cl)cc2)CN(C(=O)CC(=O)N2C/C(=C\c3ccc(Cl)cc3)C(=O)/C(=C/c3ccc(Cl)cc3)C2)C/C1=C\c1ccc(Cl)cc1	8.00
COc1cc(/C=C2/CN(C(=O)CC(=O)N3C/C(=C\c4cc(OC)c(OC)c(OC)c4)C(=O)/C(=C/c4cc(OC)c(OC)c(OC)c4)C3)C/C(=C\c3cc(OC)c(OC)c(OC)c3)C2=O)cc(OC)c1OC	8.00
O=C1/C(=C\c2ccccc2)CN(CCCN2C/C(=C\c3ccccc3)C(=O)/C(=C/c3ccccc3)C2)C/C1=C\c1ccccc1	7.40

The record that follows has no pIC50 shown yet.
Record summary for "O=C1/C(=C/c2ccc(Cl)cc2)CN(C(=O)C(=O)N2C/C(=C\c3ccc(Cl)cc3)C(=O)/C(=C/c3ccc(Cl)cc3)C2)C/C1=C\c1ccc(Cl)cc1" : reported pIC50 = 7.70

---

- Test system: HS27
- test_method_notes: Cytotoxicity against human HS27 cells assessed as dead cells at 1 uM after 24 hrs
- Assay type: cell-based
- run_parameters: hs27, 24 h
Param threshold (6%) applies to Activity; output YES when value >= threshold, NO when value < threshold.

These recorded examples may help you get a feel for the data.
> print(dat)
                               query.smiles  label
1  Cc1ccc(/C=C2\CN(C(=O)C(=O)N3C/C(=C\c4ccc(C)cc4)C(=O)/C(=C/c4ccc(C)cc4)C3)C/C(=C\c3ccc(C)cc3)C2=O)cc1    YES
2  O=C1/C(=C\c2ccccc2)CN(CCCN2C/C(=C\c3ccccc3)C(=O)/C(=C/c3ccccc3)C2)C/C1=C\c1ccccc1     NO
3  O=C1/C(=C\c2ccc(Cl)cc2)CN(C(=O)CC(=O)N2C/C(=C\c3ccc(Cl)cc3)C(=O)/C(=C/c3ccc(Cl)cc3)C2)C/C1=C\c1ccc(Cl)cc1     NO
4  O=C1/C(=C\c2ccc(F)cc2)CN(C(=O)CC(=O)N2C/C(=C\c3ccc(F)cc3)C(=O)/C(=C/c3ccc(F)cc3)C2)C/C1=C\c1ccc(F)cc1     NO

Okay, now this molecule:
Hi team, for "COc1ccc(/C=C2\CN(C(=O)C(=O)N3C/C(=C\c4ccc(OC)cc4)C(=O)/C(=C/c4ccc(OC)cc4)C3)C/C(=C\c3ccc(OC)cc3)C2=O)cc1" , is the recorded Activity at or above 6%?
NO

---

- System: CCRF-CEM
- test_method_notes: Antiproliferative activity against human CEM cells after 72 hrs by coulter counting analysis
- Format: functional, cell-based
// reported IC50 for each item listed
Give the value, in units of µM, as a plain number.

Just so you know, measured IC50 for "O=C1/C(=C\c2ccccc2)CN(C(=O)CC(=O)N2C/C(=C\c3ccccc3)C(=O)/C(=C/c3ccccc3)C2)C/C1=C\c1ccccc1" came out at 0.201
